target: CLK2 kinase (Homo sapiens, UniProt P49760); assay: CLK2 kinase activity assay (Z-lyte FRET); conditions: Z-lyte Ser/Thr 6 peptide, 60 μM ATP, 1 h at room temperature;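 further: FRET read-out as coumarin to fluorescein emission ratio, unphosphorylated peptide as 0% and phosphorylated peptide as 100% controls, duplicate reactions, non-linear regression fit of dose-response curves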
Sequence (P49760 whole entry): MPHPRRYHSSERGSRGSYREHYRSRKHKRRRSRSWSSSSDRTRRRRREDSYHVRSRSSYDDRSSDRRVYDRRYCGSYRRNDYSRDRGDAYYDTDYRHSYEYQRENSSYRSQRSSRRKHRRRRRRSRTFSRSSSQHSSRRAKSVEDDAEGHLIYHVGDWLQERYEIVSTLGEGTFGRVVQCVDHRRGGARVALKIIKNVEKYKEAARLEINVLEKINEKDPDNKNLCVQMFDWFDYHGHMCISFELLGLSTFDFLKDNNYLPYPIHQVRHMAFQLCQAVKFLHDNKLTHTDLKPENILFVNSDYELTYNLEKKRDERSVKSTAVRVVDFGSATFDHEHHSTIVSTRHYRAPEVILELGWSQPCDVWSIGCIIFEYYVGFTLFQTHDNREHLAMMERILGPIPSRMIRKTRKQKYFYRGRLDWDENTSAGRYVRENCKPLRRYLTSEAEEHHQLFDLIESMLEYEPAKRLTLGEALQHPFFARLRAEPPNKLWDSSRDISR
MEASURED QUANTITY: EC50 (nM)

Below, each entry is followed by its recorded EC50 result.
CN(C)Cc1cncc(-c2ccc3[nH]nc(-c4cc5c(-c6cccc(F)c6)nccc5[nH]4)c3c2)c1 ... 7
Nc1cncc(-c2ccc3[nH]nc(-c4nc5c(-c6ccccc6F)cccc5[nH]4)c3n2)c1 ... 3
Cc1ccc(-c2cncc3[nH]c(-c4n[nH]c5ccc(-c6cncc(N)c6)nc45)nc23)s1 ... 2
CN(C)CCOc1cncc(-c2cnc3[nH]nc(-c4nc5c(-c6cccc(F)c6)nccc5[nH]4)c3c2)c1 ... 1
CN1CCN(c2ccnc3[nH]c(-c4n[nH]c5ccc(-c6cncc(N)c6)cc45)cc23)CC1 ... 3
COc1cccc(-c2ccnc3[nH]c(-c4n[nH]c5ccc(-c6cccnc6)nc45)nc23)c1 ... 1

A. Nc1cncc(-c2ccc3[nH]nc(-c4cc5c(N6CCCCC6)ccnc5[nH]4)c3c2)c1
B. c1cncc(-c2ccc3[nH]nc(-c4nc5c(-c6ccoc6)cncc5[nH]4)c3c2)c1
Select the item with the higher value of EC50 from the options A and B listed. Select an item and report its label. A
(A: 5 nM, B: 2 nM)
